- tested system: His-GST-TVMV-hRIPK1(1-324) (Homo sapiens (Human), UniProt Q13546)
- Sequence (Q13546 1-324): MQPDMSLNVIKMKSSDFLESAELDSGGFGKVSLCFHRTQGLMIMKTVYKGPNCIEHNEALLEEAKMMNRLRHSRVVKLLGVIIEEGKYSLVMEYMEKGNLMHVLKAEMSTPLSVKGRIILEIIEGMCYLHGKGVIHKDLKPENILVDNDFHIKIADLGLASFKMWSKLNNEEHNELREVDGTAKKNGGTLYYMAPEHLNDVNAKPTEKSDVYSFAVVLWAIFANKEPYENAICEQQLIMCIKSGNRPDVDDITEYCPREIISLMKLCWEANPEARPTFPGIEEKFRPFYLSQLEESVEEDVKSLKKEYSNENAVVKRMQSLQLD
- method description: RIPK1 HTRF Binding Assay
- reported conditions: HTRF binding, 1 h at rt; read-out: RIPK1 (IC50)
Counter-ions that a name gives are not always drawn.
Field: label. Allowed values: Criterion met (IC50 < 30 nM) or Criterion not met (IC50 >= 30 nM).

Prompt: Confirm or reject: IC50 of COc1nc(C)c(-c2ccc3nc(NC(C)=O)cn3n2)cc1C(=O)NCc1ccccc1OC(C)CO (stereo not drawn) lies strictly below 30 nM
Response: Criterion met

Prompt: Confirm or reject: IC50 of `COc1ncc(-c2ccc3nc(NC(C)=O)cn3n2)cc1C(=O)NCC[C@H](O)c1ccc(Cl)cc1` lies strictly below 30 nM
Response: Criterion not met

Prompt: Confirm or reject: IC50 of `CC(=O)Nc1cn2nc(-c3cc(F)c(C)c(C(=O)NCc4c(F)cccc4C(=O)N4CCC(F)(F)C4)c3)ccc2n1` lies strictly below 30 nM
Response: Criterion not met

Prompt: Confirm or reject: IC50 of `CC(=O)Nc1cn2nc(-c3cnc(C(F)(F)F)c(C(=O)NCc4cc(C(F)(F)F)ccc4F)c3)ccc2n1` lies strictly below 30 nM
Response: Criterion not met

Prompt: Confirm or reject: IC50 of CC(=O)Nc1cn2nc(-c3cnc(C)c(C(=O)Nc4cnn(C(C)c5ccc(F)cc5)c4)c3)ccc2n1 (stereo not drawn) lies strictly below 30 nM
Response: Criterion met

Prompt: Confirm or reject: IC50 of `CC(=O)Nc1cn2nc(-c3cncc(C(=O)NCc4cc(OCC5CC5)ccc4F)c3)ccc2n1` lies strictly below 30 nM
Response: Criterion not met

Prompt: Confirm or reject: IC50 of COc1nc(C)c(-c2ccc3nc(NC(C)=O)cn3n2)cc1C(=O)NCc1cc(F)cc(F)c1OCC1CC1 [Example 300] lies strictly below 30 nM
Response: Criterion met

Prompt: Confirm or reject: IC50 of CC(=O)Nc1cn2nc(-c3cc(C(=O)NCc4cc(F)ccc4OC(F)(F)F)cnc3Cl)ccc2n1 [Example 321] lies strictly below 30 nM
Response: Criterion not met

Prompt: Confirm or reject: IC50 of CC(=O)Nc1cn2nc(-c3cnc(Cl)c(C(=O)NCc4cccc(OC(F)(F)F)c4)c3)ccc2n1 [Example 272, TFA] lies strictly below 30 nM
Response: Criterion met
